B1: Hairpin Ribozyme (parent)
chain: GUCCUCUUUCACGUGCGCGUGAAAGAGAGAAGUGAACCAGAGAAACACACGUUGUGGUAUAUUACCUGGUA

- Variants of: B1
- Measurement Protocol: self-cleavage, relative activity (ratio to wild type); higher = more cleavage; co-transcriptional
Label Y for high-side self-cleavage (at or above 0.2) and N for low-side self-cleavage (below it).

Lookup: Exam item: decide whether the reported self-cleavage for A31G U33C is at least 0.2.
Found: N

Lookup: Exam item: decide whether the reported self-cleavage for U9A A36U is at least 0.2.
Found: Y

Lookup: Exam item: decide whether the reported self-cleavage for G21A U60C is at least 0.2.
Found: Y

Lookup: Exam item: decide whether the reported self-cleavage for U14A A22U is at least 0.2.
Found: Y

Lookup: Exam item: decide whether the reported self-cleavage for C48G C66G is at least 0.2.
Found: N

Lookup: Exam item: decide whether the reported self-cleavage for A23C C48G is at least 0.2.
Found: N

Lookup: Exam item: decide whether the reported self-cleavage for A41C U52G is at least 0.2.
Found: Y

Lookup: Exam item: decide whether the reported self-cleavage for A24G A31G is at least 0.2.
Found: Y

Lookup: Exam item: decide whether the reported self-cleavage for U5G G25A is at least 0.2.
Found: Y

Lookup: Exam item: decide whether the reported self-cleavage for C3G A43C is at least 0.2.
Found: N

Lookup: Exam item: decide whether the reported self-cleavage for U7A A61C is at least 0.2.
Found: N

Lookup: Exam item: decide whether the reported self-cleavage for A45U A61G is at least 0.2.
Found: N

Lookup: Exam item: decide whether the reported self-cleavage for G27U A30G is at least 0.2.
Found: N
